# Run Conditions: compound at 1 uM, average of normalized cell number, n=3, relative to DMSO
Each entry below carries its reported Average Cell Number (1 uM).

INSERT INTO assay_data (molecule, recorded_result) VALUES
  ('CC(C)(C[C@H]1CN(S(=O)(=O)c2cccc(C(F)(F)F)c2)c2cc(-c3cc(F)cc(OC(F)F)c3)ccc2O1)C(=O)O [Cintirorgon, cintirorgon]', 0.7476),
  ('O=C(O)CC[C@H]1CC[C@@](c2cc(F)ccc2F)(S(=O)(=O)c2ccc(Cl)cc2)CC1 [MK-0752, mk-0752]', 0.6912),
  ('CC1(C)S[C@@H]2[C@H](NC(=O)[C@H](N)c3ccccc3)C(=O)N2[C@H]1C(=O)O [Ampicillin, ampicillin]', 0.694),
  ('C#C[C@]1(O)CC[C@H]2[C@@H]3CCC4=CCCC[C@@H]4[C@H]3C(=C)C[C@@]21CC [Desogestrel, desogestrel]', 0.8768),
  ('Nc1cc(C(F)(F)F)c(-c2nc(N3CCOCC3)nc(N3CCOCC3)n2)cn1 [Bimiralisib, bimiralisib]', 0.6927),
  ('CC(C)N1CCN(Cc2cnc(-c3cc(-c4cccc5[nH]ccc45)cc4[nH]ncc34)o2)CC1 [GSK2269557, nemiralisib]', 0.8919);

Lab book: Average Cell Number (1 uM) of c1cc(OCCN2CCCCC2)cc(-c2n[nH]c3ccc(-c4nc[nH]n4)cc23)c1 [CC-401, cc-401] noted as 0.8485
